Test: High temperature stability study of compounds (60° C.)
Assay type: physicochemical
Conditions: related substance, in the dark, Day 10
Answer each item with its documented Ketorolac (%).
Give bare numbers, in %.

The examples below pair each entry with its known result.
CCOC(=O)OC(C)OC(=O)C1CCn2c(C(=O)c3ccccc3)ccc21 (centres unmarked)	0.07
CCC(=O)OC(CC)OC(=O)C1CCn2c(C(=O)c3ccccc3)ccc21 (centres unmarked)	0.96
CC(OC(=O)OC1CCCCC1)OC(=O)C1CCn2c(C(=O)c3ccccc3)ccc21 (centres unmarked)	0.37
CC(OC(=O)C1CCn2c(C(=O)c3ccccc3)ccc21)OC(=O)C(C)(C)C (centres unmarked)	0.32

// Ketorolac (%) lookup, compound = CC(=O)OC(OC(=O)C1CCn2c(C(=O)c3ccccc3)ccc21)C(C)C (centres unmarked) , result: 0.17
